The measured values listed here are drawn from paper PMC9774939.

Reported melting point values follow for various compounds

Cc1c(C(=O)NCc2ccc3c(c2)OCO3)nn(-c2ccc(Cl)cc2)c1-n1cccc1 [Compound 29]    144 to 148 °C
Cc1c(C(=O)NCc2ccc(F)cc2)nn(-c2ccc(Cl)c(Cl)c2)c1-n1cccc1    148 to 151 °C

Query block: Report measured melting point; entry is CC(C)(C)OC(=O)[C@H](Cc1ccccc1)NC(=O)c1nn(-c2ccccc2)c(-n2cccc2)c1C#N [Compound 25]
Result block: 93 to 94 °C

Query block: Please list melting point recorded for the compound CN1CCN(C(=O)c2cnn(C)c2-n2cccc2)CC1 [Compound 3]
Result block: 109 to 111 °C

###

experimental.endpoint: melting point

O=C(NN1CCCCC1)c1cnn(-c2ccccc2)c1-n1cccc1 [Compound 5]    165 to 167 °C

Query block: State, in one line, measured melting point of Cc1c(C(=O)N(C)Cc2ccccc2)nn(-c2ccc(Cl)cc2)c1-n1cccc1 [Compound 34]
Result block: 104 to 108 °C

Query block: Determine its reported melting point: Cc1c(C(=O)Nc2ccc(S(N)(=O)=O)cc2)nn(-c2ccc(Cl)cc2)c1-n1cccc1 [Compound 46]
Result block: 238 to 239 °C

Query block: Answer with reported melting point of O=C(NC12CC3CC(CC(O)(C3)C1)C2)c1cc(-n2cccc2)n(-c2ccccc2)n1 [Compound 23]
Result block: 217 to 221 °C

Query block: Provide only the value of recorded melting point for Cc1c(C(=O)N2CCN(C)CC2)nn(-c2ccc(Cl)cc2)c1-n1cccc1 [Compound 28]
Result block: 178 to 182 °C

Query block: Supply reported melting point belonging to this compound: Cc1c(C(=O)Nc2ccccc2C(=O)O)nn(-c2ccc(Cl)cc2)c1-n1cccc1 [Compound 44]
Result block: 270 to 272 °C

Query block: Respond only with melting point recorded for CCOC(=O)[C@H](C)NC(=O)CNC(=O)c1cnn(-c2ccccc2)c1-n1cccc1 [Compound 18]
Result block: 116 to 117 °C

Query block: Consider the compound Cc1c(C(=O)NCc2ccc3c(c2)OCO3)nn(-c2ccc(Cl)c(Cl)c2)c1-n1c(C)ccc1C [Compound 38] and give its recorded melting point.
Result block: 141 to 145 °C

Query block: Identify the reported melting point for the following entry. C[C@H](NC(=O)c1cnn(-c2ccccc2)c1-n1cccc1)C(=O)O [Compound 16]
Result block: 142 to 145 °C

Query block: In one line, give reported melting point of the entry CC(C)[C@H](NC(=O)c1cnn(-c2ccccc2)c1-n1cccc1)C(=O)O [Compound 17] .
Result block: 150 to 152 °C

###

system: K. pneumoniae ATCC 13833; test: Chequerboard analysis with colistin; type: cell-based, Klebsiella pneumoniae; conditions: combination with colistin; synergy when ≤0.5
This listing pairs molecules with measured Average FIC Index.
# answer = number (no unit)

Query block: Enter Average FIC Index (test system K. pneumoniae ATCC 13833) for O=C(NC12CC3CC(CC(C3)C1)C2)c1cnn(-c2ccccc2)c1-n1cccc1 [Compound 8]
Result block: 0.5

###

Each entry below lists one item and its recorded melting point value.

Example cases with answers are listed next.
O=C(NC12CC3CC(CC(C3)C1)C2)c1cnn(-c2ccccc2)c1-n1cccc1    167 to 169 °C
CCOC(=O)c1ccc(NC(=O)c2nn(-c3ccc(Cl)cc3)c(-n3cccc3)c2C)cc1    168 to 170 °C
Cc1c(C(=O)Nc2ccc(S(C)(=N)=O)cc2)nn(-c2ccc(Cl)cc2)c1-n1cccc1 (centres unmarked)    207 to 210 °C
O=C(c1cnn(-c2ccccc2)c1-n1cccc1)N1CCN(c2ncccn2)CC1    218 to 219 °C

Proceeding to the next compound to report its melting point.
Query block: Name the recorded melting point of the item Cc1c(C(=O)Nc2ccc(C(=O)O)cc2)nn(-c2ccc(Cl)cc2)c1-n1cccc1 in your answer.
Result block: > 250 °C
